B1: glmS ribozyme (parent)
chain: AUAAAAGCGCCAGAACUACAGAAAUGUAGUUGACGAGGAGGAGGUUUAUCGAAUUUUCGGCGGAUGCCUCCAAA

Variants of: B1
Assay Text: self-cleavage kobs at 10000 uM GlcN6P; higher = faster cleavage; RNA array
Setup Conditions: with glucosamine-6-phosphate
This sample holds only a part of the variants without activity.
Reported Endpoint: self-cleavage kobs at 10000 uM GlcN6P (s⁻¹)
The answer is to be given in s⁻¹; state only the numeric part.

For the variant C16A G44A C67A , what self-cleavage kobs at 10000 uM GlcN6P is on record?
9.58e-05

Cool, now G29C C70U
0.000815

Cool, now U47C A52G
0.000465

Cool, now G29C U45C
0.000108

Cool, now G29C C67G
7.18e-05

Cool, now A52U C67A
0.000183

Cool, now C16G U47A U56A U65G
0.000338

Cool, now A6C C71A
2.19e-05

Cool, now A42G C71U
0.0178

Cool, now G32U A64G
0.000774

Cool, now A14C A48C
4.92e-05
